pIC50: −log10 of the molar value.
Literature pIC50 values, system: Glycogen synthase kinase-3 alpha (Homo sapiens).
readout_label: pIC50

Please review the following examples before continuing.
COCCOCCOCCOc1cc(Nc2nccc(Oc3ccc(NC(=O)Nc4cc(C(C)(C)C)cc(-c5nnco5)c4OC)c4ccccc34)n2)cc(OC)c1
6.01
CC(C)c1cc(NC(=O)Nc2ccc(Oc3ccnc(Nc4ccccc4)n3)c3ccccc23)n(-c2ccc(P(C)(C)=O)cc2)n1
6.66
CC1CN(c2ccncc2NC(=O)c2ccnn3cc(-c4ccc(C(F)(F)F)cc4)nc23)CCO1 (centres unmarked)
9.22
C#Cc1cc(Nc2nccc(Oc3ccc(NC(=O)Nc4cc(C(C)(C)C)nn4C)c4ccccc34)n2)cc(C(=O)NCCOCCOCCOC)c1
5.73
C#Cc1cc(Nc2nccc(Oc3ccc(NC(=O)Nc4cc(C(C)(C)C)nn4-c4ccc(C)cc4)c4ccccc34)n2)cc(C(=O)NCCOCCOC)c1
5.54
CC(C)(C)c1cc(NC(=O)Nc2ccc(Oc3cc(Nc4ccc5[nH]ncc5c4)ncn3)c3ccccc23)n(-c2ccc(=O)n(CCO)c2)n1
5.96
COc1c(NC(=O)Nc2ccc(Oc3ccnc(Nc4cc(C#N)cc(OCCN5CCOCC5)c4)c3)c3ccccc23)cc(C(C)(C)C)cc1[S+](C)[O-] (centres unmarked)
5.06
CC(C)(C)c1cc(NC(=O)Nc2ccc(Oc3ccnc(Nc4ccc5c(cnn5CCN5CCOCC5)c4)n3)c3ccccc23)n(-c2ccc(OCCN3CCOCC3)nc2)n1
6.24

A. COc1cc(Nc2cc(Oc3ccc(NC(=O)Nc4cc(C(C)(C)C)cc(OCCO)c4OC)c4ccccc34)ccn2)cc(C(N)=O)c1
B. CC(C)(C)c1cc(NC(=O)Nc2ccc(Oc3ccnc(Nc4ccc5c(c4)NC(=O)C5)n3)c3ccccc23)n(-c2ccc(OCCN3CCOCC3)nc2)n1
Select one: A or B . Criterion: greater recorded pIC50. Answer = label.
B
(B: 6.57, A: 5.41)

1. CC(C)(C)c1cc(NC(=O)Nc2ccc(Oc3ccnc(Nc4ccc5c(c4)OCCO5)n3)c3ccccc23)n(-c2ccc(OCCN3CCOCC3)cc2)n1
2. COc1cc(Nc2cc(Oc3ccc(NC(=O)Nc4cc(C(C)(C)C)cc(NS(C)(=O)=O)c4OC)c4ccccc34)ccn2)ccc1C(=O)NCCOCCOCCO
3. O=C(Nc1cnccc1OCC(F)(F)F)c1ccnc(Nc2cccc3ccccc23)n1
4. COCCOCCOCCOc1cc(Nc2nccc(Oc3ccc(NC(=O)Nc4cc(C(C)(C)C)cc(S(N)(=O)=O)c4OC)c4ccccc34)n2)cc(OC)c1
5. C#Cc1cc(Nc2nccc(Oc3ccc(NC(=O)Nc4cc(C(C)(C)C)cc(C(N)=O)c4OC)c4ccccc34)n2)cc(C(=O)NCCN2CCOCC2)c1
Falling order of pIC50, please. Reply with the item labels sorted in the order that was asked for.
3, 5, 1, 4, 2
(3: 8.68, 5: 6.36, 1: 6.07, 4: 5.63, 2: 5.43)
